Biological target: SARS-CoV-2 Spike (SARS-CoV-2), P0DTC2
Test: inhibitor screening kit; SARS-CoV-2 Spike:ACE2 (Example 3 assay)
property: pIC50
Numbers only, as −log10 of the molar value.

Would you please look over these solved cases?
{"binder": "EQAKTFLDKFNHEAEDLFPKWSAFLKEQSTLAQMYG (modifications not checked) [Seq27 (LNCOV-27)]", "result": 7.18}
{"binder": "KTFLDKFNHEAEDLF (modifications not checked) [Seq25 (LNCOV-33)]", "result": 5.60}
{"binder": "KTFLDKFNHEAEDLFYSLWRALWRLWRSLWRLLWK (modifications not checked) [Seq35 (LNCOV-26)]", "result": 6.26}
{"binder": "KTFLDKFNHEAEDLFYS (modifications not checked) [Seq26 (LNCOV-34)]", "result": 5.72}
{"binder": "Seq40 (LNCOV-32) (modifications not checked) peptide: KTFLDKFNHEAEDLFPKWSAFLKEQSTLAQMYGLWRALWRLWRSLWRLLWK", "result": 7.35}

Batch request: pIC50 for each of the following binders.
1. Seq39 (LNCOV-31) (modifications not checked) peptide: EQAKTFLDKFNHEAEDLFPKWSAFLKEQSTLAQMYGLWRALWRLWRSLWRLLWK
2. EQAKTFLDKFNHEAEDLF (modifications not checked) [Seq24 (LNCOV-19)]
3. KTFLDKFNHEAEDLFPGPKWSAFLKEQSTLAQMYG (modifications not checked) [Seq28 (LNCOV-20)]
4. EQAKTFLDKFNHEAEDLFLWRALWRLWRSLWRLLWK (modifications not checked) [Seq33 (LNCOV-18)]

Completion:
1. 7.26
2. 5.89
3. 7.23
4. 6.75
